This section presents pKi values reported for Histamine H1 receptor (Homo sapiens, UniProt P35367) in the literature.
pKi: −log10 of the molar value.
READOUT TYPE: pKi

Reference set (5 entries):
• Cc1ccc(S(=O)(=O)NC(=O)N2CCC(N3CCC(Oc4ccc(Cl)cc4Cl)CC3)CC2)cc1 = 7.80
• CC1NC(N)=Nc2cccc(Cl)c21 (stereo unspecified) = 5.96
• CN1CCN(c2nc(N)nc3cc(-c4ccco4)ccc23)CC1 = 5.19
• NCCOc1ccccc1Cc1ccccc1 = 5.80
• O=C(O)C(=O)O.c1ccc(-c2ccc(OCCCCCN3CCCCCC3)cc2)cc1 = 5.90

[a] CN(C)CC1C[C@H]2c3ccccc3Oc3ccccc3[C@H]2O1 (stereo partly specified)
[b] CCCCCC(=O)c1ccc(OCCCN2CCN(C(=O)OC)CC2)cc1
Sorting ascending by pKi, which comes first: a or b ? Please identify the chosen entry by its label.
b

[A] CC(=O)Nc1ccc(OCCCN2CCC(c3noc4cc(F)ccc34)CC2)cc1
[B] Cc1cc(F)ccc1O[C@H](c1ccccc1)[C@H]1CNCCO1
Pick one, A or B : lowest reported pKi. State the label of the item chosen.
A

[P] CCCCCC(=O)c1ccc(OCCCN2CCNCC2)cc1
[Q] CNCCOc1ccccc1Cc1ccccc1
// which entry has the larger pKi value, P or Q ? State your choice using its label.
Q
(Q: 7.00, P: 5.22)
